IC50 values for the compounds below.
biological target: recombinant human ER-α (Homo sapiens, UniProt P03372); construct: purchased Invitrogen (Carlsbad, Calif.); assay: Binding affinity for recombinant human ER-α (fluorescence polarization, ES2 displacement); details: read-out: binding affinities for ER-α (IC50)
Sequence (P03372 whole entry): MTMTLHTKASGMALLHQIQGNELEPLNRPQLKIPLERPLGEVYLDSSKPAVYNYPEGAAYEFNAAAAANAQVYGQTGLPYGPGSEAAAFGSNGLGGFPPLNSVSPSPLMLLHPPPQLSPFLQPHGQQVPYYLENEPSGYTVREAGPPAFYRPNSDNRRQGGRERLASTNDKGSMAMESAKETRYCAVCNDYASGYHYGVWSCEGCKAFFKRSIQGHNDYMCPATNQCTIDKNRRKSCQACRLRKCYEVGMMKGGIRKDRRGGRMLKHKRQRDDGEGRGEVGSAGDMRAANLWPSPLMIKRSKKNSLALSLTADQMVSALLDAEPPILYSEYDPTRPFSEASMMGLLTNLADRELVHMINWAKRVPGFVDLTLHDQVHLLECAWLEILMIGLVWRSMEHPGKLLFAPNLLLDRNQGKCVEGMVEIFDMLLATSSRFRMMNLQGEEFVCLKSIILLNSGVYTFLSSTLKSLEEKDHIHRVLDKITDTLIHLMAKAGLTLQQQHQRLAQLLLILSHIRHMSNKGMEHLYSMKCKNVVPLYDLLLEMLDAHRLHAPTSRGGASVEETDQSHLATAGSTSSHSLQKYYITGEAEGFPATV

compound: Oc1ccc(C(=C(Cn2ccnc2)c2ccc(O)c(F)c2)c2ccc(O)cc2)cc1 [Compound 18b]
IC50: 85.2 to 97.8 nM

Note: attention shifts to another entry.
Exercise: Consider the compound Oc1ccc(C(Cn2ccnc2)=C(c2ccc(O)cc2)c2ccc(O)cc2)cc1 [Compound 18a] . State its measured IC50.
Solution: 85.2 to 97.8 nM

---

target: recombinant human ER-β (Homo sapiens); assay: Binding affinity for recombinant human ER-β (fluorescence polarization, ES2 displacement); details: read-out: binding affinities for ER-β (IC50)
Sequence (Q92731 whole entry): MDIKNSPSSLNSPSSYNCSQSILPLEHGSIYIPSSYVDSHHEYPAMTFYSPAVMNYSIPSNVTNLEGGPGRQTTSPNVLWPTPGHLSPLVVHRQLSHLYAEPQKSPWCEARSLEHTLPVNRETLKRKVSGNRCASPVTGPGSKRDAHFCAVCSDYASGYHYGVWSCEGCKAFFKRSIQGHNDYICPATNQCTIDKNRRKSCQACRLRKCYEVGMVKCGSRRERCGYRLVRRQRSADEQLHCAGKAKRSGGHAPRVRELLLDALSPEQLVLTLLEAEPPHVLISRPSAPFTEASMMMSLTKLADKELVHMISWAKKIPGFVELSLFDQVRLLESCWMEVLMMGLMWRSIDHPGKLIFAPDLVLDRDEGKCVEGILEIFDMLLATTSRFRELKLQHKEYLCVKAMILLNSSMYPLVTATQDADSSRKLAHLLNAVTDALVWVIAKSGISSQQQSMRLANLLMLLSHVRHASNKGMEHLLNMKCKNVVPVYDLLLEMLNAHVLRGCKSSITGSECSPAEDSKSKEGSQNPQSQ
pIC50: −log10 of the molar value.
pIC50 values for the molecules below.

Exercise: Consider the molecule Oc1ccc(C(=C(Cn2ccnc2)c2ccc(O)c(F)c2)c2ccc(O)cc2)cc1 [Compound 18b] . State its measured pIC50.
Solution: 7.13 to 7.25

Exercise: Consider the molecule Oc1ccc(C(Cn2ccnc2)=C(c2ccc(O)cc2)c2ccc(O)cc2)cc1 [Compound 18a] . State its measured pIC50.
Solution: 7.13 to 7.25
